# measurementProtocol: Lipophilicity HPLC determination (logk)
# Assay type: physicochemical
# measurementParameters: HPLC capacity factor, C18, MeOH 70%/H2O 30%, 30 °C
Outcome label depends on logk relative to 0.004: at/above gives satisfied, below gives not satisfied.

Examples from the recorded data:
> print(dat)
                    compound  assignedclass
1  CN1CCN(c2nccnc2C(N)=O)CC1  not satisfied
2   CCC(C)(C)Nc1nccnc1C(N)=O      satisfied
3   NC(=O)c1nccnc1NC1CCCCCC1      satisfied

Kindly review the next compound as well.
State whether the measured logk reaches 0.004, counting equality as reaching it, for CCCCNc1nccnc1C(N)=O [Compound 4, 3-(Butylamino)pyrazine-2-carboxamide]
satisfied
